Data provenance is the supplement of paper PMC7877785.

assay: self-splicing fitness, log relative to wild type (ln ratio); higher = more splicing; Tetrahymena group I intron in knt gene, E. coli kanamycin selection, DiMSum; sequences stand for … in CUCUCU…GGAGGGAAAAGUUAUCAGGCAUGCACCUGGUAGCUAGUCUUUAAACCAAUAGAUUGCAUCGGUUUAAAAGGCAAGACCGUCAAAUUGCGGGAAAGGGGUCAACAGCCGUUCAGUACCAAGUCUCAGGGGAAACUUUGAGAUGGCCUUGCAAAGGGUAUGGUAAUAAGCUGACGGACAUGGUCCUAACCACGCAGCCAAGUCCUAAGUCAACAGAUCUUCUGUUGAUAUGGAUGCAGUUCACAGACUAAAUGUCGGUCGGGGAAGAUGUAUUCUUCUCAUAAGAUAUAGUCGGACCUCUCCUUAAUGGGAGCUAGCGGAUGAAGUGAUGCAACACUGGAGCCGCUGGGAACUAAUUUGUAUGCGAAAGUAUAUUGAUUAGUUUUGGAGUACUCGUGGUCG; details: 30 °C;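 further: selection with 25 µg/mL kanamycin versus none on LB agar overnight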
Mark condition not met for self-splicing fitness (ln) values under -3, and condition met for everything at or above.

[[record]]
sequence_data = "UUCUAGCAAUAUUACGGUCA"
label = "condition met"

[[record]]
sequence_data = "CGAUAGCAAUAUUACGUAAC"
label = "condition met"

[[record]]
sequence_data = "GCCCAGCAAUAUUACGGUAU"
label = "condition met"

[[record]]
sequence_data = "GGCCAGCAAUAUUACGAGCU"
label = "condition met"

[[record]]
sequence_data = "ACGCAGCAAUAUUACGGUAG"
label = "condition not met"

[[record]]
sequence_data = "AGAUAGCAAUAUUACGUGGA"
label = "condition not met"

[[record]]
sequence_data = "CGCCAGCAAUAUUACGGGAA"
label = "condition met"

[[record]]
sequence_data = "CAGCAGCAAUAUUACGUACA"
label = "condition met"

[[record]]
sequence_data = "UCCAAGCAAUAUUACGCCUU"
label = "condition not met"

[[record]]
sequence_data = "CAUCAGCAAUAUUACGAUAG"
label = "condition met"

[[record]]
sequence_data = "UGGCAGCAAUAUUACGAGUA"
label = "condition met"

[[record]]
sequence_data = "GACAAGCAAUAUUACGCUAC"
label = "condition not met"

[[record]]
sequence_data = "UUCAAGCAAUAUUACGUUUU"
label = "condition not met"

[[record]]
sequence_data = "GUUCAGCAAUAUUACGGGGC"
label = "condition met"

[[record]]
sequence_data = "GGCGAGCAAUAUUACGUCUC"
label = "condition met"

[[record]]
sequence_data = "GAAAAGCAAUAUUACGCUCU"
label = "condition met"


---

test: self-splicing fitness, log relative to wild type (ln ratio); higher = more splicing; Tetrahymena group I intron in knt gene, E. coli kanamycin selection, DiMSum; sequences stand for … in CUCUCU…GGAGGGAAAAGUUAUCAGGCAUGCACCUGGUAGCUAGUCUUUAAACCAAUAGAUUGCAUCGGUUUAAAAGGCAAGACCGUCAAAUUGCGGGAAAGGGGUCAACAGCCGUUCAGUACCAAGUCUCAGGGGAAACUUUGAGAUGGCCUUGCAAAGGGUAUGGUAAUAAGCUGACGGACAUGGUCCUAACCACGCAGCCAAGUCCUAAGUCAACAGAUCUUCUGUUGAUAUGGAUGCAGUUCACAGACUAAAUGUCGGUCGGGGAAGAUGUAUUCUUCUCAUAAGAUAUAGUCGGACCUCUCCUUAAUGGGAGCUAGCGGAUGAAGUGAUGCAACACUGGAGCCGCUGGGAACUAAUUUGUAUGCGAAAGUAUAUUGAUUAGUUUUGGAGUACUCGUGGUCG; settings: 37 °C
Reported self-splicing fitness (ln) is given for each of the following sequences.
recorded_endpoint: self-splicing fitness (ln)

[[record]]
sequence_data = "CGCGAGCAAUAUUACGGCGA"
recorded_endpoint = "self-splicing fitness (ln)"
value = -1.19

[[record]]
sequence_data = "ACAGAGCAAUAUUACGUCAG"
recorded_endpoint = "self-splicing fitness (ln)"
value = -2.43

[[record]]
sequence_data = "UAAGAGCAAUAUUACGAAUU"
recorded_endpoint = "self-splicing fitness (ln)"
value = -1.84

[[record]]
sequence_data = "GGCUAGCAAUAUUACGAGUA"
recorded_endpoint = "self-splicing fitness (ln)"
value = -0.404

[[record]]
sequence_data = "AGCCAGCAAUAUUACGAAGG"
recorded_endpoint = "self-splicing fitness (ln)"
value = -2.92

[[record]]
sequence_data = "CGAAAGCAAUAUUACGAGCA"
recorded_endpoint = "self-splicing fitness (ln)"
value = -0.869

[[record]]
sequence_data = "CGAUAGCAAUAUUACGUCGA"
recorded_endpoint = "self-splicing fitness (ln)"
value = -1.15

[[record]]
sequence_data = "CGAGAGCAAUAUUACGGGUC"
recorded_endpoint = "self-splicing fitness (ln)"
value = -0.826

[[record]]
sequence_data = "CUGAAGCAAUAUUACGAUGA"
recorded_endpoint = "self-splicing fitness (ln)"
value = -1.92

[[record]]
sequence_data = "CUUUAGCAAUAUUACGUAGG"
recorded_endpoint = "self-splicing fitness (ln)"
value = -0.65

[[record]]
sequence_data = "GGAUAGCAAUAUUACGGUGC"
recorded_endpoint = "self-splicing fitness (ln)"
value = -2.5

[[record]]
sequence_data = "GUGUAGCAAUAUUACGCUGG"
recorded_endpoint = "self-splicing fitness (ln)"
value = -1.54

[[record]]
sequence_data = "CACGAGCAAUAUUACGCACG"
recorded_endpoint = "self-splicing fitness (ln)"
value = -1.15

[[record]]
sequence_data = "UUCUAGCAAUAUUACGCACG"
recorded_endpoint = "self-splicing fitness (ln)"
value = -0.399

[[record]]
sequence_data = "UGUUAGCAAUAUUACGAGGU"
recorded_endpoint = "self-splicing fitness (ln)"
value = -2.8

[[record]]
sequence_data = "AAGGAGCAAUAUUACGGAUA"
recorded_endpoint = "self-splicing fitness (ln)"
value = -1.99

[[record]]
sequence_data = "GUGCAGCAAUAUUACGCCAU"
recorded_endpoint = "self-splicing fitness (ln)"
value = -2.62

[[record]]
sequence_data = "UAUGAGCAAUAUUACGCAGA"
recorded_endpoint = "self-splicing fitness (ln)"
value = -2.6

[[record]]
sequence_data = "UCACAGCAAUAUUACGUAGA"
recorded_endpoint = "self-splicing fitness (ln)"
value = -0.0941

[[record]]
sequence_data = "CUGUAGCAAUAUUACGGGCA"
recorded_endpoint = "self-splicing fitness (ln)"
value = -2.5

[[record]]
sequence_data = "UCCCAGCAAUAUUACGUAUU"
recorded_endpoint = "self-splicing fitness (ln)"
value = -3.28

[[record]]
sequence_data = "CACGAGCAAUAUUACGUGUG"
recorded_endpoint = "self-splicing fitness (ln)"
value = -3.21

[[record]]
sequence_data = "UACAAGCAAUAUUACGCUUG"
recorded_endpoint = "self-splicing fitness (ln)"
value = -2.79

[[record]]
sequence_data = "GAUUAGCAAUAUUACGGAAA"
recorded_endpoint = "self-splicing fitness (ln)"
value = -2.19

[[record]]
sequence_data = "GACUAGCAAUAUUACGCGGA"
recorded_endpoint = "self-splicing fitness (ln)"
value = -0.984

[[record]]
sequence_data = "UCUAAGCAAUAUUACGGGCU"
recorded_endpoint = "self-splicing fitness (ln)"
value = -1.84

[[record]]
sequence_data = "CCGUAGCAAUAUUACGUCCA"
recorded_endpoint = "self-splicing fitness (ln)"
value = -3.26

[[record]]
sequence_data = "CCGCAGCAAUAUUACGCGAU"
recorded_endpoint = "self-splicing fitness (ln)"
value = -3.44

[[record]]
sequence_data = "AUAGAGCAAUAUUACGCGAG"
recorded_endpoint = "self-splicing fitness (ln)"
value = -1.26

[[record]]
sequence_data = "AAAGAGCAAUAUUACGCCAU"
recorded_endpoint = "self-splicing fitness (ln)"
value = -2.55

[[record]]
sequence_data = "GCUCAGCAAUAUUACGGCAU"
recorded_endpoint = "self-splicing fitness (ln)"
value = -1.72

[[record]]
sequence_data = "UGGAAGCAAUAUUACGCUCU"
recorded_endpoint = "self-splicing fitness (ln)"
value = -1.45

[[record]]
sequence_data = "UUCGAGCAAUAUUACGAAUA"
recorded_endpoint = "self-splicing fitness (ln)"
value = -1.26

[[record]]
sequence_data = "GGUUAGCAAUAUUACGAGGA"
recorded_endpoint = "self-splicing fitness (ln)"
value = -1.96


---

Listed below: self-splicing fitness (ln) values for each entry.
test: self-splicing fitness, log relative to wild type (ln ratio); higher = more splicing; Tetrahymena group I intron in knt gene, E. coli kanamycin selection, DiMSum; sequences stand for … in CUCUCU…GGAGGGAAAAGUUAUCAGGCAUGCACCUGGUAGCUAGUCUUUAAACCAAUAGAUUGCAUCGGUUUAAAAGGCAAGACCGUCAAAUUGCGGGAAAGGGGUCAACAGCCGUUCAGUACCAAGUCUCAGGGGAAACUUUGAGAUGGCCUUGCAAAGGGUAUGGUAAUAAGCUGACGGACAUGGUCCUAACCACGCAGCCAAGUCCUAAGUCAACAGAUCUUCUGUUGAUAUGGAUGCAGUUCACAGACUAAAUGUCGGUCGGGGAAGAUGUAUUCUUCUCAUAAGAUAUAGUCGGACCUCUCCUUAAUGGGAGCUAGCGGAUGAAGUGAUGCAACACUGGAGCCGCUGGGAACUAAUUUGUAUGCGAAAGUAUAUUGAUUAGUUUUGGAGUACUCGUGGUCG; conditions: 37 °C
recorded_endpoint: self-splicing fitness (ln)

[[record]]
sequence_data = "AAAAAGCAAUAUUACGAAGC"
recorded_endpoint = "self-splicing fitness (ln)"
value = -1.85

[[record]]
sequence_data = "UUUUAGCAAUAUUACGGACG"
recorded_endpoint = "self-splicing fitness (ln)"
value = -0.45

[[record]]
sequence_data = "GGAGAGCAAUAUUACGUGGU"
recorded_endpoint = "self-splicing fitness (ln)"
value = -3.01

[[record]]
sequence_data = "AAUAAGCAAUAUUACGCCCA"
recorded_endpoint = "self-splicing fitness (ln)"
value = -0.447

[[record]]
sequence_data = "CCCGAGCAAUAUUACGGUGA"
recorded_endpoint = "self-splicing fitness (ln)"
value = -1.32

[[record]]
sequence_data = "UGGAAGCAAUAUUACGCGGG"
recorded_endpoint = "self-splicing fitness (ln)"
value = -1.29

[[record]]
sequence_data = "CACAAGCAAUAUUACGUUAG"
recorded_endpoint = "self-splicing fitness (ln)"
value = -0.63

[[record]]
sequence_data = "CGAGAGCAAUAUUACGUUAG"
recorded_endpoint = "self-splicing fitness (ln)"
value = -2.24

[[record]]
sequence_data = "ACGGAGCAAUAUUACGGGAU"
recorded_endpoint = "self-splicing fitness (ln)"
value = -1.83

[[record]]
sequence_data = "UCGUAGCAAUAUUACGUGGG"
recorded_endpoint = "self-splicing fitness (ln)"
value = -3.92

[[record]]
sequence_data = "ACUGAGCAAUAUUACGGGCU"
recorded_endpoint = "self-splicing fitness (ln)"
value = -2.92

[[record]]
sequence_data = "GUGCAGCAAUAUUACGGCUU"
recorded_endpoint = "self-splicing fitness (ln)"
value = -0.128

[[record]]
sequence_data = "GUGAAGCAAUAUUACGAGAU"
recorded_endpoint = "self-splicing fitness (ln)"
value = -0.51

[[record]]
sequence_data = "UGUAAGCAAUAUUACGAGUA"
recorded_endpoint = "self-splicing fitness (ln)"
value = -0.65

[[record]]
sequence_data = "AACGAGCAAUAUUACGGUCU"
recorded_endpoint = "self-splicing fitness (ln)"
value = -0.898

[[record]]
sequence_data = "GGCAAGCAAUAUUACGGAGG"
recorded_endpoint = "self-splicing fitness (ln)"
value = -2.87

[[record]]
sequence_data = "ACCAAGCAAUAUUACGAAAU"
recorded_endpoint = "self-splicing fitness (ln)"
value = -2.08

[[record]]
sequence_data = "UCGCAGCAAUAUUACGCGAU"
recorded_endpoint = "self-splicing fitness (ln)"
value = -2.97

[[record]]
sequence_data = "UUGAAGCAAUAUUACGGCCG"
recorded_endpoint = "self-splicing fitness (ln)"
value = 0.318

[[record]]
sequence_data = "GAAAAGCAAUAUUACGAGAC"
recorded_endpoint = "self-splicing fitness (ln)"
value = -0.985

[[record]]
sequence_data = "CGCCAGCAAUAUUACGGAUA"
recorded_endpoint = "self-splicing fitness (ln)"
value = -1.32

[[record]]
sequence_data = "CGACAGCAAUAUUACGCUGA"
recorded_endpoint = "self-splicing fitness (ln)"
value = -2.66

[[record]]
sequence_data = "AGACAGCAAUAUUACGGAUC"
recorded_endpoint = "self-splicing fitness (ln)"
value = -0.56

[[record]]
sequence_data = "GUACAGCAAUAUUACGGGGU"
recorded_endpoint = "self-splicing fitness (ln)"
value = -2.34

[[record]]
sequence_data = "CGUAAGCAAUAUUACGGUAG"
recorded_endpoint = "self-splicing fitness (ln)"
value = -1.4

[[record]]
sequence_data = "GCAAAGCAAUAUUACGCCUA"
recorded_endpoint = "self-splicing fitness (ln)"
value = -1.11

[[record]]
sequence_data = "UCACAGCAAUAUUACGUCCG"
recorded_endpoint = "self-splicing fitness (ln)"
value = -0.358

[[record]]
sequence_data = "GCACAGCAAUAUUACGUGGG"
recorded_endpoint = "self-splicing fitness (ln)"
value = -1.47

[[record]]
sequence_data = "CAACAGCAAUAUUACGAACG"
recorded_endpoint = "self-splicing fitness (ln)"
value = 0.73

[[record]]
sequence_data = "CCGUAGCAAUAUUACGCGUU"
recorded_endpoint = "self-splicing fitness (ln)"
value = -2.86

[[record]]
sequence_data = "UUCUAGCAAUAUUACGGGCU"
recorded_endpoint = "self-splicing fitness (ln)"
value = -3.76

[[record]]
sequence_data = "UGCAAGCAAUAUUACGGUAG"
recorded_endpoint = "self-splicing fitness (ln)"
value = -0.376

[[record]]
sequence_data = "UGUCAGCAAUAUUACGAGUG"
recorded_endpoint = "self-splicing fitness (ln)"
value = -0.261

[[record]]
sequence_data = "GCGCAGCAAUAUUACGGGUC"
recorded_endpoint = "self-splicing fitness (ln)"
value = -0.449

